# experiment-notes: Half life in rat liver microsomes at […] by HPLC-PDA analysis
# Assay type: ADME, Microsome
Parameter: half-life. Scope: all listed entries.
Please answer using a numeric value trailed by its unit.

| compound | half-life |
| --- | --- |
| C=C(c1ccc(Cl)cc1)[C@H]1OOC2(CCCCC2)O[C@@H]1c1ccc(Cl)cc1 (relative stereo) | 23 min |

half-life reported for this compound `CCO[C@H]1O[C@@H]2O[C@@]3(C)CC[C@H]4[C@H](C)CC[C@@H]([C@H]1C)[C@@]24OO3` : 47.4 min

====

Parameter: logD. Scope: all listed entries.
# experiment-notes: Distribution coefficient, log D of the compound at pH 7.4 by HPLC-PDA analysis
# Type: physicochemical
# condition-details: octanol/water

| molecule | test-result |
| --- | --- |
| CCO[C@H]1O[C@@H]2O[C@@]3(C)CC[C@H]4[C@H](C)CC[C@@H]([C@H]1C)[C@@]24OO3 | 3.6 |

logD reported for this molecule C=C(c1ccc(Cl)cc1)[C@H]1OOC2(CCCCC2)O[C@@H]1c1ccc(Cl)cc1 (relative stereo) : 4.23
